Test system: TK-10 renal
Assay: NCI-60 one-dose screen, 48 h (100 = growth as untreated, 0 = no growth, -100 = all killed)
Settings: 10 µM unless noted
The panel holds about 83,000 compounds, 20% with a hit somewhere; the sample as a whole holds those more often.
Observed Property: growth (%)
Give the value in % but do not write % after it.

Provide the documented growth with TK-10 renal as the system for O=S(=O)(NCCCNc1nccc(-c2c(-c3ccc(F)c(O)c3)nc3sccn23)n1)c1ccc(F)cc1 27.6

Cn1c(COC(=O)NCCn2ccnc2)nc2c(N3CCOCC3)nc(-c3ccccc3)nc21 , same question. -83.3

C[C@@H]1CN(Cc2ccc(/C=C/c3n[nH]c4ccc5nc(-c6cn[nH]c6C(F)(F)F)c6c(c5c34)CCCC6)cc2)C[C@H](C)O1 , same question. 32.5

CN1CCN(c2cnc(C(=O)Nc3cc(F)cc4cccnc34)cn2)CC1 , same question. 69.3

O=C(Nc1nc2ccc(S(=O)(=O)Nc3ccc(C4(C(F)(F)F)CC4)cc3)cc2[nH]1)c1cnccn1 , same question. 65.9

OC(c1ccccc1)c1ccccn1 (stereo not given) , same question. 99.3

COc1ccc(-c2nc3sccn3c2/C=C/C(=O)c2cc(OC)c(OC)c(OC)c2)cc1 , same question. 82.7

O=C(CCN1CCCC1)Nc1ccc2c(Nc3ccccc3)c3ccccc3nc2c1 , same question. 1.74

COc1ccc(C2CC(c3cccc(Nc4ccncc4)c3)=NN2c2ccc(Cl)cc2)cc1 (stereo not given) , same question. 59.1

COc1cccc2c1C(=O)c1c(O)c3c(c(O)c1C2=O)C[C@@](O)(C(=O)CO)C[C@@H]3O[C@H]1C[C@H](N)[C@@H](O)[C@H](C)O1 , same question. 6.82

O=C(Nc1ccc(Cl)cc1)Nc1ccc(Cl)c(Cl)c1 , same question. 12.5

CC(C)(C)OC(=O)N1CCN(c2ccc(N)cc2)C(=O)C1 , same question. 126

Cc1nc2sc(C(=O)Nc3ccccc3)c(N)c2cc1C(=O)c1ccc(C(F)(F)F)cc1 , same question. 104

O=S(=O)(c1cccc(NC2=Nc3cccc4cccc2c34)c1)N1CCCC1 , same question. 90.5

Nc1ccccc1NC(=O)c1ccc(CN2CCC/C(=C\c3cccc(Cl)c3)C2=O)cc1 , same question. 4.89

c1ccc(Cn2nc3c(c2-c2ccccc2)-c2oncc2CC3)cc1 , same question. 107

CCCCCCCCOC(=O)c1ccc(O)c(OC)c1 , same question. 98.6

O=c1[nH]nc(-c2ccc(Cl)cc2)cc1Cc1cccc([N+](=O)[O-])c1 , same question. 147

Cc1ccc2[nH]c(=O)cc(-n3nncc3COc3ccc(C=O)cc3)c2c1 , same question. 109

CC(=O)c1cc2c(N)c(C(=O)Nc3cncc4ccccc34)sc2nc1C , same question. 119

====

Test system: SK-MEL-28 melanoma
Assay: NCI-60 one-dose screen, 48 h (100 = growth as untreated, 0 = no growth, -100 = all killed)
Settings: 10 µM unless noted
Experimental: Growth inhibition of the SK-MEL-28 human tumor cell line is measured as a screen for anti-cancer activity. Cells are grown in 96 well plates and exposed to the test compound for 48 hours. Compounds are tested at a single concentration, which is 10^-5 M for most compounds. The reported endpoint is percent growth (GI% or GIPRCNT), where numbers from 0 - 100% represent growth inhibition, and numbers from -100% - 0 represent cell death. For example, a value of 40 represents 60% growth inhibition. […]
The panel holds about 83,000 compounds, 20% with a hit somewhere; the sample as a whole holds those more often.
Observed Property: growth (%)
Give the value in % but do not write % after it.

Returns the measured growth for the input compound. Input: COc1ccc(-c2nc(N/N=C/c3ccco3)nc(N3CCOCC3)c2C#N)cc1 80.8

COc1ccc(NC(=O)c2sc3nc(C)c(C(=O)CCc4cccc(OC)c4)cc3c2N)cc1 , same question. 83

CCCCCN1C=C/C(=C\C(=O)N(C)c2ccc(Br)cc2)c2ccccc21 , same question. 105

COC(=O)C(c1ccccc1)C(CC(=O)c1ccccc1)c1ccccc1 (stereo not drawn) , same question. 91.8

CC(Oc1ccc(C(=O)NS(=O)(=O)C(C)(C)C)cc1C(F)(F)F)c1ccc(Oc2ccccc2)cn1 (stereo not drawn) , same question. 61

CNC(=O)Nc1ccc(-c2nc(N3CCOCC3)nc3c2cnn3C2CCOCC2)cc1 , same question. -14.1

NC(=O)c1cccc(-n2ccc3cc(NC(=O)Nc4cc(C(F)(F)F)cc(C(F)(F)F)c4)ccc32)n1 , same question. 69.3

O=C1OC(=O)C2C1CC=CC2c1ccccc1 (stereo not drawn) , same question. 91.8

c1ccc(-c2nn(-c3ccccc3)[n+](-c3ccccc3-c3ccccc3)n2)cc1 , same question. 48.7

C=C(C)[C@@H]1CC[C@]2(CO)CC[C@]3(C)[C@H](CC[C@@H]4[C@@]5(C)CCCNC(C)(C)[C@@H]5CC[C@]43C)[C@@H]12 , same question. -65.4

COc1cc(NCC(O)CN(CC(C)C)CC(C)C)c2nc(C)ccc2c1 (stereo not drawn) , same question. 100

COc1ccc(C(=O)/C=C/c2c(OC)cc(OC)cc2OC)c(OC)c1 , same question. 56.8

CCN(CC)CCCC(C)Nc1cc(-c2cccc(OC(F)(F)F)c2)nc2ccc(N3CCCC3)cc12 (stereo not drawn) , same question. -93

O=C(N=Nc1c(O)[nH]c2ccc(F)cc12)c1cc2ccccc2[nH]1 , same question. 110

NC(=S)N/N=C/c1ccc(OC(=O)COc2cc(Cl)c(Cl)cc2Cl)cn1 , same question. 89

O=C(N/N=C/c1cccnc1)c1ccccc1Nc1cccc(C(F)(F)F)c1 , same question. 85.5

COc1cccc(NC(=O)c2cccc(-c3cc(=O)c4c(OC)c(OC)c(OC)cc4o3)c2)c1 , same question. 73.4

CC(=O)[C@@H]1CC[C@]2(C(=O)n3ccnc3)CC[C@]3(C)[C@H](CC[C@@H]4[C@@]5(C)Cc6c([nH]c7ccccc67)C(C)(C)[C@@H]5CC[C@]43C)[C@@H]12 , same question. 96

O=C(Nc1sc2c(c1C(=O)O)CCCC2)c1cccc(C(F)(F)F)c1 , same question. 94.4

C=C1C(=O)O[C@H]2[C@H]1CC/C(COC(=O)NCCc1c[nH]c3ccc(Cl)cc13)=C\CC[C@@]1(C)O[C@@H]21 , same question. -71.9

CC1(C)NCCC[C@]2(C)[C@H]3CC=C4[C@@H]5C[C@@](C)(CO)CC[C@]5(C)CC[C@@]4(C)[C@]3(C)CC[C@@H]12 , same question. 68.2

CCOC(=O)C1CC(=O)c2cc(OC)c(OC)cc2C1 (stereo not drawn) , same question. 119

COc1cccc(CNCCN2C(=O)c3ccc4c5c(ccc(c35)C2=O)C(=O)N(CCNCc2cccc(OC)c2)C4=O)c1 , same question. 120

Nc1nnc(C(=O)c2cnc3n(c2=O)CCCCC3)s1 , same question. 106

COc1cc(/C=C/C(=O)c2ccc(Nc3ncnc4ccccc34)cc2)cc(OC)c1 , same question. 86.3

c1ccc(CCSc2ncnc3nc[nH]c23)cc1 , same question. 103

O=C1Nc2c(ccc(Cl)c2Cl)/C1=C/c1ccc(F)cc1 , same question. 115

COc1cc(CCNc2nc3cc(N)cc(N)c3nc2-c2ccccc2)cc(OC)c1 , same question. -12.2

O=C(OC(OC(=O)c1cc(Cl)cc(Cl)c1)c1cccc2ccccc12)c1ccccc1 (stereo not drawn) , same question. 111

COC(=O)C1=C(C(=O)ONCCN(C)C)C2C=CC1(C(Cc1ccccc1)Nc1ccc(F)cc1)O2 (stereo not drawn) , same question. 96.1

OC1(c2ccc(Cl)c(C(F)(F)F)c2)CCN(CCCC(c2ccc(F)cc2)c2ccc(F)cc2)CC1 , same question. -94.4

COc1cc(Nc2cc(O)c3c(=O)cc(-c4ccccc4)oc3c2)cc(OC)c1 , same question. 68.5

C(=C\c1n(Cc2ccc3ccccc3c2)c(-c2ccccc2)c(-c2ccccc2)[n+]1Cc1ccc2ccccc2c1)/c1ccccc1 , same question. -80.8

CN1CCN(c2cc(F)c(NC3=C(Cl)C(=O)c4ncccc4C3=O)c(F)c2)CC1 , same question. -55.1

COc1ccc(C2CC(c3cccc(Nc4ccncc4)c3)=NN2c2cc(Cl)cc(Cl)c2)cc1 (stereo not drawn) , same question. -49.3

CCc1nc(C)cn1C(=O)OCc1nc2nc(Cl)nc(N3CCOCC3)c2[nH]1 , same question. -89.6

CCCCCCOc1ccc(/C=N/Nc2cc(C)nc3ccc(Br)cc23)cc1 , same question. -81.9

COc1ccc(-c2cnnc3c(-c4cccc(C(F)(F)F)c4)cnn23)cc1 , same question. 56.1

====

Test system: MALME-3M melanoma
Assay: NCI-60 one-dose screen, 48 h (100 = growth as untreated, 0 = no growth, -100 = all killed)
Settings: 10 µM unless noted
The panel holds about 83,000 compounds, 20% with a hit somewhere; the sample as a whole holds those more often. Activity calls are given as the source filed them. Rule for the calls: active = growth percent below 10; inactive = the rest.
Would you mind telling me the reported growth of each entry?

Returns the measured growth for the input molecule. Input: COc1cc(/C=C2\C(=O)N(Cc3ccc(Cl)cc3)c3ccccc32)cc(OC)c1OC 65.5% (inactive)

CCN1C(=O)N(CC)C2NC(SC)=NC21 (stereo not given) , same question. 95% (inactive)

CC(=O)OC1CCC2(C)C(CCC3C4CC=C(C(C)=O)C4(C)OC(=O)CC32)C1 (stereo not given) , same question. -25.6% (active)

Cc1ccc(-c2c(Br)c(OC(=O)CO[C@@H]3C[C@H](C)CC[C@H]3C(C)C)c(-c3ccc(C)cc3C)c(Br)c2OC(=O)CO[C@H]2C[C@@H](C)CC[C@@H]2C(C)C)c(C)c1 , same question. 106% (inactive)

Cc1c2c(cc[n+]1Cc1ccccc1)c1ccc(OCC3CCCCC3)cc1n2CC1CCCCC1 , same question. -70.3% (active)

Clc1ccc2c(c1)c(-c1ccccc1)nc1nncn12 , same question. 113% (inactive)

CN(C)Cc1c(-c2ccccc2)[nH]c2ccccc12 , same question. 128% (inactive)

COc1ccc(C(=O)/C=C/c2c(OC)cc(OC)cc2OC)c(OC)c1 , same question. 3.17% (active)

COc1ccccc1OCC(=O)N1CCCCCC1 , same question. 89.2% (inactive)

COc1cccc(CCC(=O)c2cc3c(N)c(C(=O)Nc4ccccc4)sc3nc2C)c1 , same question. 27% (inactive)

C=C1C(=O)O[C@H]2[C@H]1CC/C(CNC(=O)/C=C/c1ccccc1F)=C\CC[C@@]1(C)O[C@@H]21 , same question. -43.9% (active)

CCCN=C(N)c1ccc(NC(=O)c2ccc(C(=O)Nc3ccc(C(N)=NCCC)cc3)cc2)cc1 , same question. 88.1% (inactive)

Cc1cc(C)c(C=O)c(C)c1 , same question. 114% (inactive)

O=C1Nc2cc(-c3ccncc3)ccc2/C1=C/c1ccc[nH]1 , same question. 65.8% (inactive)

O=C(Nc1ccc(Nc2ncccn2)cc1)NC1C=c2ccccc2=CC1 (stereo not given) , same question. 114% (inactive)

O=C1CCCCCCCCC(O)C(O)CCCC(c2cccs2)O1 (stereo not given) , same question. 107% (inactive)

c1ccc(-c2nnc(Nc3ccc4c(c3)OCCO4)o2)c(NCc2ccncc2)c1 , same question. 53.6% (inactive)

CCc1nc(C)cn1C(=O)OCc1nc2nc(Cl)nc(N3CCOCC3)c2[nH]1 , same question. -67.8% (active)

S=c1[nH]cccc1-c1nnc2n1Nc1nc3ccc(Cl)cc3cc1CS2 , same question. 110% (inactive)

CC(C)Sc1nc(NN)c(C#N)c(-c2ccccc2)n1 , same question. 95.7% (inactive)

CCNNC(=O)[C@@H]1[C@H](c2cc(OC)c(OC)c(OC)c2)c2cc3c(cc2[C@H](O)[C@H]1CO)OCO3 , same question. 56.3% (inactive)

CN1CCN(CCCOc2ccc3ncnc(Nc4ccc(Oc5cccc(C(F)(F)F)c5)c(Cl)c4)c3c2)CC1 , same question. -90.2% (active)

Cc1cc2nc(-c3ccccc3)c(-c3ccccc3)nc2cc1C , same question. 113% (inactive)

COc1cc2nc(-c3ccc(-c4nn[nH]n4)cc3)[nH]c(=O)c2cc1OC , same question. 215% (inactive)

CCCCCN1C=C/C(=C\C(=O)N(C)c2ccc(Br)cc2)c2ccccc21 , same question. 96.9% (inactive)

COc1cnccc1-c1nc2ccc3[nH]ncc3c2c2c1CCCC2 , same question. 73.8% (inactive)

c1ccc(N2N=C(c3cccc(Nc4ccncc4)c3)CC2c2ccc3c(c2)OCO3)cc1 (stereo not given) , same question. -22.6% (active)

O=C(O)c1ccc[n+](CC(=O)N2CCN(c3cc4c(cc3F)c(=O)c(C(=O)O)cn4C3CC3)CC2)c1 , same question. -34% (active)

C[C@]12CCc3nc(Nc4cccc(O)c4)sc3C1=CC[C@@H]1[C@@H]2CC[C@]2(C)/C(=N\NC(N)=S)CC[C@@H]12 , same question. 39% (inactive)

COc1cc2nc(-c3ccc(C#N)cc3)[nH]c(=O)c2cc1OC , same question. 263% (inactive)

Cc1ccc(C2C3CC4CCCCC4N3[C@@]3(C(=O)Nc4cc(Cl)ccc43)C2C(=O)c2nc3ccccc3[nH]2)cc1 (stereo not given in full) , same question. 33.9% (inactive)

CCN(CC)CCCC(Nc1c2ccc(Cl)cc2nc2ccc(OC)cc12)c1ccc(Cl)cc1 (stereo not given) , same question. -82.3% (active)

BrC(Br)(Br)c1cnc2ccccc2n1 , same question. -10.4% (active)

COc1ccc(CC(C)=C(c2ccc(OCCN(C)C)cc2)c2ccc(OCCN(C)C)cc2)cc1 , same question. 96% (inactive)

O=C(Nc1cccc(C2=NCCN2)c1)c1ccc(OCCCOc2ccc(C(=O)Nc3cccc(C4=NCCN4)c3)cc2)cc1 , same question. -82% (active)

COc1ccc(-c2nc(N/N=C/c3c[nH]c4ccccc34)nc(N3CCOCC3)c2C#N)cc1 , same question. 80.3% (inactive)

COc1cccc2cc(-c3cc4ccccc4[nH]3)/c(=N/C(=S)Nc3ccc(C)cc3)oc12 , same question. 66.6% (inactive)

O=C(Nc1ccccc1)Oc1ccccc1-c1ccccc1 , same question. 95% (inactive)

CCCCOc1ccc(/C=N/Nc2cc(C)nc3ccc(Cl)cc23)cc1 , same question. -77% (active)

C[C@]12C[C@H]1CC[C@]1(C)[C@@H]2CC[C@@]23C[C@H](CC[C@H]21)[C@@](O)(CO)C3 , same question. 98.7% (inactive)

Provenance of the data: PubChem BioAssay (NCI)
